Listing: inhibition of selected molecules
assay: Mycobacterium tuberculosis growth inhibition, primary screen (AID 1259343); conditions: at 10 µM, stronger effect = higher value
Screen size: about 6,200 compounds; about 2,900 (47%) were called active. The set was probably picked from earlier hits. The list shows a part of the results.
Outcome Measure: inhibition (%)

# Molecule, Reported Value
data = [
    ("CCCCNC(=S)N1CC2(C)CC1CC(C)(C)C2 (stereo unspecified)", 90.3),
    ("CC(NC(=O)c1ccc(-c2cccc(Cl)c2)s1)C(C)(C)C (stereo unspecified)", 50),
    ("COc1ccc(CNC(=O)c2ccc(-c3cccc(Cl)c3)s2)cc1", 54.9),
    ("CCCSc1nsc(SCCC)c1C#N", 97.4),
    ("CC1(C)CC2CC(C)(CN2C(=S)NC(=O)c2cccs2)C1 (stereo unspecified)", 96.2),
    ("OC1(C2(O)CC(c3ccccc3)NO2)CCCCC1 (stereo unspecified)", 27.1),
]

====

experiment: Mycobacterium tuberculosis growth inhibition, primary screen (AID 1259343); details: at 10 µM, stronger effect = higher value
Among all 6,200 compounds or so, about 2,900 (47%) were called active. So high a share suggests a set chosen from earlier hits. Some of the results follow.

# Smiles Input, inhibition [%]
records = [
    ("O=S(=O)(Nc1nc2ccccc2nc1OCC(F)(F)F)c1cccs1", 71.9),
    ("O=C(NCc1ccccc1F)c1cccc(COCC(F)(F)C(F)F)c1", 68.7),
    ("O=C(O)c1cc(-c2ccc(F)cc2)nc2cc(-c3ccccc3)nn12", 67.1),
]

====

Recorded inhibition for the following compounds
assay: Mycobacterium tuberculosis growth inhibition, primary screen (AID 1259343); details: at 10 µM, stronger effect = higher value
About 2,900 (47%) of roughly 6,200 compounds were called active. So high a share suggests a set chosen from earlier hits. The list shows a part of the results.
Outcome Measure: inhibition (%)

# Compound, Outcome Measure, Reported Value
rows = [
    ("CCCSc1nnc2c(n1)OC=Nc1ccc(Br)cc1-2", "inhibition", 87.8),
    ("N#Cc1c(NC(=O)c2ccco2)sc2c1CCCCC2", "inhibition", -3.03),
    ("CC(C)CC(=O)NCC1CCN(c2ccc(Cl)cc2)C1 (centres undefined)", "inhibition", 68.8),
    ("Cc1noc(-c2ccc(N3CC[C@@H](c4ccc5c(c4)OCO5)[C@H](O)C3)nc2)n1", "inhibition", 12.9),
    ("C=C(C)CNC(=S)NN=CC1=CCC2CC1C2(C)C (centres undefined)", "inhibition", 23),
    ("CC(C)(O)C#Cc1ccc(C(=O)NCc2cnn(-c3ccc(F)cc3)c2)o1", "inhibition", 36.3),
    ("O=C(Nc1ccc([N+](=O)[O-])cc1)c1ccc(Br)s1", "inhibition", 91.6),
    ("Cc1c[nH]c(=O)n1-c1ccc(C(=O)N2CCCC2c2ccccc2)cc1 (centres undefined)", "inhibition", -8.28),
    ("CC(C)c1nnc(SCc2cccnc2)c2c1cnn2-c1ccc(F)cc1", "inhibition", 48),
    ("Cc1cccc(-c2ccc(NC(=O)C3CCN(C(=O)CSc4ccncc4)CC3)cc2)c1", "inhibition", 74.8),
    ("CC(C)(CC(=O)O)CC(=O)N1CCC2(CC1)OCc1cc(-c3ccc(C(F)(F)F)cc3)ccc1O2", "inhibition", 58),
    ("CCc1cn[nH]c1C1CCN(c2noc(-c3ccccc3)n2)CC1", "inhibition", 20.9),
    ("CC(C)c1cc(=O)[nH]c(-n2nc(-c3cccs3)cc2NC(=O)c2cc3ccccc3o2)n1", "inhibition", 100),
    ("OCc1ccccc1-c1ccc(-c2nc(CCc3ccccc3)no2)cn1", "inhibition", 75.2),
    ("O=C(/C=C/c1cccc([N+](=O)[O-])c1)n1cnc2ccccc21", "inhibition", 96.9),
    ("O=C(CN1CCc2ccccc2C1)Nc1nc(-c2cc3ccccc3o2)cs1", "inhibition", 5.08),
    ("COC(=O)c1cc2cc(Br)ccc2oc1=O", "inhibition", -45.4),
    ("CCOC(=O)c1c(C)c(C(=O)NCCC(C)C)c(C)n1Cc1ccccc1", "inhibition", 56.4),
    ("Cc1ccc(NC(=O)c2ccc([N+](=O)[O-])s2)cc1", "inhibition", 78.9),
]

====

assay: Mycobacterium tuberculosis growth inhibition, primary screen (AID 1259343); settings: at 10 µM, stronger effect = higher value
The campaign covered roughly 6,200 compounds. About 2,900 (47%) were called active. So high a share suggests a set chosen from earlier hits. Some of the results follow.
Catalogue of inhibition values

# Compound, Unit Name, inhibition
records = [
    ("CCc1nnc(NC(=O)C2CC2)s1", "%", 68.7),
    ("CSc1nnc(SCc2nc3sc(C(=O)O)c(C)c3c(=O)[nH]2)s1", "%", 80.8),
    ("CCCn1cc(SCC(=O)N2CCc3ccccc32)c2ccccc21", "%", 16.9),
    ("O=C(NC(=S)Nc1ccc(N2CCN(C(=O)c3ccccc3)CC2)cc1)c1ccco1", "%", 99.1),
    ("CCOc1nc(C#N)nc(N2CCOCC2)n1", "%", 22.3),
    ("CC(Sc1nnc(-c2ccc(Br)cc2)o1)C(N)=O (stereo unspecified)", "%", 86),
    ("Nc1ccc(Oc2cc(N)cc(Oc3ccccc3)c2)cc1", "%", -36.6),
    ("c1nc(NC2CC3CC2C2CCCC32)c2sccc2n1 (stereo unspecified)", "%", 30.1),
    ("NCC(=O)Nc1ccc(-n2nc(C(F)(F)F)cc2-c2ccc3c(ccc4ccccc43)c2)cc1", "%", 73.5),
    ("CCCc1cnc(Nc2nc(C(N)Cc3ccc(C(F)(F)F)cc3)cs2)nc1 (stereo unspecified)", "%", 50.7),
    ("COC(=O)C[C@H]1C2(C)CC34OC5(C)O[C@@]6([C@H](OC)C(OC(=O)C(C)C)[C@]7(C)C(/C(=C(/OC)C(C)C)C(=O)O[C@H]7c7ccoc7)[C@@]6(O5)[C@H](OC)[C@@]3(OC)C2OC(C)=O)[C@]14C (stereo partly specified)", "%", 37.5),
    ("CCCn1nc(C(=O)NC(C)c2nnc3n2CCC3)ccc1=O (stereo unspecified)", "%", 3.57),
    ("CCC(CO)NC(=S)N=P(c1ccccc1)(N(CC)CC)N(CC)CC (stereo unspecified)", "%", 81.6),
    ("CCNC(=S)NN=C(C)c1cccs1", "%", 101),
    ("O=c1ccc(-c2ccc(F)cc2)nn1Cc1ccc(Br)cc1", "%", 46.8),
    ("CCOc1ccc(-c2ccc(=O)n(Cc3ccccc3)n2)cc1", "%", 41.1),
    ("CCN(CC)C(=S)S", "%", 92.6),
    ("O=C(CSc1nncs1)Nc1ccc2oc3ccccc3c2c1", "%", 92.2),
    ("C=C(C)COc1cccc(C(=O)NCc2noc(C3CCCC3)n2)c1", "%", 38.4),
    ("COc1ccc(Cl)cc1C(=O)Nc1cc(-c2cccs2)nn1-c1nc(C(C)C)cc(=O)[nH]1", "%", 101),
    ("CCC(C(=O)Nc1cc(C2CC2)nn1-c1nc(C)cc(=O)[nH]1)c1ccccc1 (stereo unspecified)", "%", 100),
    ("CCc1nnc(NC(=O)c2ccc(O)c(Cl)c2)s1", "%", 81.3),
    ("O=S(=O)(Nc1ccc(Cl)cc1F)c1ccc(Cl)s1", "%", -6.72),
    ("O=c1ccc(-c2ccc(Br)cc2)nn1Cc1cccc(F)c1", "%", -4.34),
    ("O=C(CCc1nnc(CCc2c[nH]c3ccccc23)o1)N1CCC(c2ccccc2Cl)C1 (stereo unspecified)", "%", 33.4),
    ("Cc1ccc(S(=O)(=O)Nc2ccc(Br)cc2Br)c(C)c1", "%", 50.7),
    ("CNC(=O)C1CCN(C(=O)COc2ccc(Oc3ccc(C)cc3)cc2)CC1", "%", -12.7),
    ("CCCC1CCCC(=C\\c2ccc(OC)cc2)/C1=N\\OC(=O)NCC (stereo unspecified)", "%", 57),
    ("O=S(=O)(Nc1cc2c(cc1Cl)OCO2)c1ccc(Cl)s1", "%", 101),
    ("CCCCCCNS(=O)(=O)c1ccc(Br)s1", "%", 78.5),
    ("O=c1ccc(-c2ccccc2)nn1Cc1cccc(Cl)c1", "%", 92.4),
    ("Cc1cccc(C(=O)Nc2cc(C3CC3)nn2-c2nc(C)cc(=O)[nH]2)c1", "%", 100),
    ("COc1cc(Oc2ccccc2)ccc1N", "%", 23.5),
    ("Cc1cc(NC(=O)CSc2nc3ccccc3c(=O)n2C2CCCC(C)C2C)on1 (stereo unspecified)", "%", 9.06),
    ("O=S(=O)(Nc1ccc(Br)cc1Br)c1ccc(Cl)s1", "%", 86.1),
    ("O=C(Nc1ccc(Oc2ccccc2F)cc1)C1CCN(C(=O)C2CCCCO2)CC1 (stereo unspecified)", "%", 88.7),
]

FYI, the data here is from PubChem BioAssay AID1259343.
